# test.target: Aurora-B (Homo sapiens, UniProt Q96GD4)
# Sequence (Q96GD4 whole entry): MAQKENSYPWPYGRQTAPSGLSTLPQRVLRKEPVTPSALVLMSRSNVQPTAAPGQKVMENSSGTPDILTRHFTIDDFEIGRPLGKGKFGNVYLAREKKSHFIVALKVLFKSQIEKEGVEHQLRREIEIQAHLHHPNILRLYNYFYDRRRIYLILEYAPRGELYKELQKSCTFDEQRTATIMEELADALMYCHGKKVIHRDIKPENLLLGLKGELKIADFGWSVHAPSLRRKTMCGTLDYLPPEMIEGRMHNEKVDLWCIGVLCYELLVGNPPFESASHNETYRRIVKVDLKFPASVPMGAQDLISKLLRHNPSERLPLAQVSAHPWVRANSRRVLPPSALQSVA
pIC50: −log10 of the molar value.
Catalogue of molecules with associated pIC50

Examples with answers:
Recorded pIC50 for COc1cc2c(Oc3ccc(CC(=O)Nc4cccc(F)c4)cc3)ccnc2cc1OCC[C@H](N)C(=O)O with Aurora-B (Homo sapiens, UniProt Q96GD4), please? > 5.70

Recorded pIC50 for COc1cc2c(Oc3ccc(NC(=O)c4cccc(F)c4)cc3)ccnc2cc1OCC[C@H](N)C(=O)O with Aurora-B (Homo sapiens, UniProt Q96GD4), please? > 5.70

Recorded pIC50 for COc1cc2c(Oc3ccc(NC(=O)c4ccccc4)cc3F)ccnc2cc1OCC[C@H](N)C(=O)OC1CCCC1 with Aurora-B (Homo sapiens, UniProt Q96GD4), please? 5.30 to 5.70

Recorded pIC50 for COc1cc2c(Oc3ccc(NC(=O)c4ccccc4)cc3)ncnc2cc1OCC[C@H](N)C(=O)O with Aurora-B (Homo sapiens, UniProt Q96GD4), please? 5.30 to 5.70

More entries:
Recorded pIC50 for COc1cc2c(Oc3ccc(C(=O)Nc4ccccc4)cc3)ccnc2cc1OCC[C@H](N)C(=O)OC1CCCC1 with Aurora-B (Homo sapiens, UniProt Q96GD4), please? < 5.30

Recorded pIC50 for COc1cc2c(Oc3ccc(NC(=O)c4ccccc4)cc3)c(Br)cnc2cc1OCC[C@H](N)C(=O)OC1CCCC1 with Aurora-B (Homo sapiens, UniProt Q96GD4), please? < 5.30

Recorded pIC50 for COc1cc2c(Oc3ccc(NC(=O)c4ccc(Cl)cc4)cc3)ccnc2cc1OCC[C@H](N)C(=O)O with Aurora-B (Homo sapiens, UniProt Q96GD4), please? > 5.70

Recorded pIC50 for COc1cc2c(Oc3ccc(NC(=O)c4ccccc4)cc3)ccnc2cc1OCC[C@H](NC(=O)OC(C)(C)C)C(=O)OC1CCCC1 with Aurora-B (Homo sapiens, UniProt Q96GD4), please? < 5.30

Recorded pIC50 for COc1cc2c(Oc3ccc(NC(=O)c4ccccc4)cc3)ccnc2cc1OCCC[C@H](N)C(=O)OC1CCCC1 with Aurora-B (Homo sapiens, UniProt Q96GD4), please? 5.30 to 5.70

Recorded pIC50 for COc1cc2c(Oc3ccc(NC(=O)c4cc(C(F)(F)F)ccc4F)cc3)ccnc2cc1OCC[C@H](N)C(=O)O with Aurora-B (Homo sapiens, UniProt Q96GD4), please? > 5.70
